Reference source for all entries: the supplement of paper PMC10567573

B1: INTS3 (parent)
chain: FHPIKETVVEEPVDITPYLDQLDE

Variants of: B1
Assay: protein stability index of a GFP-peptide fusion (GPS, HEK-293T) (PSI 1-6); higher = more stable;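 note: lentivirally expressed fusions sorted by FACS into six bins by GFP to DsRed ratio, PSI derived from sequencing read proportions per bin multiplied by bin number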
Conditions: c terminus: a fixed tail appended
Response key: 1 means protein stability index >= 3; 0 means protein stability index < 3.

Recorded results for 4 variants are shown here.
P3H | 1
F1Y | 1
E10N | 0
F1G | 1

**Q:** Check the entry L19D : does protein stability index equal or exceed 3?
**A:** 1

**Q:** Check the entry E6H : does protein stability index equal or exceed 3?
**A:** 0

**Q:** Check the entry L19N : does protein stability index equal or exceed 3?
**A:** 1
